Origin of values: patent US3956336A

tested on: phenylquinone induced writhing; test: Phenylquinone writhing, agonist activity, mouse; type: in vivo; conditions: sc, subcutaneous, 50 percent reduction in number of writhing, as free base
Simple rule here: ED50 less than 0.3 mg/kg is yes, otherwise no.

[[record]]
compound = "CO[C@H]1[C@H]2Cc3ccc(O)cc3[C@]1(C)CCN2CC1CC1 (relative stereo) [dl-XIIa]"
label_class = "yes"

[[record]]
compound = "CCO[C@H]1[C@H]2Cc3ccc(O)cc3[C@]1(C)CCN2CC1CC1 (relative stereo) [dl-XIId]"
label_class = "no"

[[record]]
compound = "CCCC12CCN(CC3CC3)C(Cc3ccc(O)cc31)C2OC (racemic) [dl-XIIn]"
label_class = "yes"

[[record]]
compound = "C=CC[C@]12CCN(CC3CC3)[C@H](Cc3ccc(O)cc31)[C@@H]2OC (relative stereo) [dl-XIIm]"
label_class = "yes"

[[record]]
compound = "CO[C@@]1(C)[C@H]2Cc3ccc(O)cc3[C@]1(C)CCN2CC1CC1 (relative stereo) [dl-XIIb]"
label_class = "no"

[[record]]
compound = "CO[C@@]1(C)[C@H]2Cc3ccc(O)cc3[C@]1(C)CCN2CC1CCC1 (relative stereo) [dl-XIIc]"
label_class = "no"

[[record]]
compound = "CO[C@]1(C)[C@H]2Cc3ccc(O)cc3[C@]1(C)CCN2CC1CC1 (relative stereo) [dl-XIIr]"
label_class = "no"


From here, focus on the item given below.
Quick check: does C=CCO[C@H]1[C@H]2Cc3ccc(O)cc3[C@]1(C)CCN2CC1CC1 (relative stereo) [dl-XIIe] have ED50 under 0.3 mg/kg? no
